Target: UniProt:P19111
Sequence (P19111 20-506): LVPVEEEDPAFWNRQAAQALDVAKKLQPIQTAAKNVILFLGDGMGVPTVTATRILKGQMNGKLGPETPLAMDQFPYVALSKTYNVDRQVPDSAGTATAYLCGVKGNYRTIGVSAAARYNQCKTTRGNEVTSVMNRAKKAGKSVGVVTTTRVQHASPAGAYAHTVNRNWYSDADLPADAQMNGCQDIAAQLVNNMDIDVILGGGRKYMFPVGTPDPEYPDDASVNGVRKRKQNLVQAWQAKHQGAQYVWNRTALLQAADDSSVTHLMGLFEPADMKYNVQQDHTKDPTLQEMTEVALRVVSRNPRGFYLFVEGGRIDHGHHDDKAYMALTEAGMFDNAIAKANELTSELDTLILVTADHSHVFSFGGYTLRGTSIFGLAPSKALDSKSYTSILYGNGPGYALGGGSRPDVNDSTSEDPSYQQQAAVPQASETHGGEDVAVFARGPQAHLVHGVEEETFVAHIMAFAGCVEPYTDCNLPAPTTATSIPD
Format: biochemical
Parameters: mature GPI-type homodimer
Settings: 0.1M TRIS pH 10.3, 50 mM NaCl, 10 mM MgCl2, 0.1 mM ZnCl2; double-reciprocal plot
Reported k2 (specific activity, turnover rate) by item:
Respond with the bare value in µmol/min/mg.

O=c1[nH]c(-c2ccccc2OP(=O)(O)O)nc2ccccc12 | 188.81
O=c1[nH]c(-c2cc(Cl)ccc2OP(=O)(O)O)nc2ccc(Cl)cc12 | 618.60
O=c1[nH]c(-c2ccccc2OP(=O)(O)O)nc2ccc([N+](=O)[O-])cc12 | 150.66

Please examine the following record next.
Prompt: Entry COc1cc(OC)c(OP(=O)(O)O)c(-c2nc3ccccc3c(=O)[nH]2)c1 needs its k2 (specific activity, turnover rate) filled in; supply it.
Response: 215.60

Recorded values, source patent US5443986A.
